Tested on: Trypanosoma brucei brucei
Assay: Trypanocidal activity against Trypanosoma brucei brucei after 48 hrs
Format: functional, organism-based
REPORTED_ENDPOINT: MIC (µM)
Express the result in µM but write the number alone.

{"columns": ["COMPOUND", "MIC, µM"],
 "data": [
  ["CC(C)C[C@H](NC(=O)OC(C)(C)C)C(=O)N1CCC[C@H]1C(=O)N1[C@H](C(=O)OCc2ccccc2)[C@H]1C(=O)OCc1ccccc1", 125],
  ["CC(C)C[C@H](NC(=O)OC(C)(C)C)C(=O)N1CCC[C@H]1C(=O)N1[C@@H](C(=O)OCc2ccccc2)[C@@H]1C(=O)OCc1ccccc1", 125],
  ["Cc1ccc(C(=O)Nc2ccc(S(=O)(=O)[O-])c3cc(S(=O)(=O)[O-])cc(S(=O)(=O)[O-])c23)cc1NC(=O)c1cccc(NC(=O)Nc2cccc(C(=O)Nc3cc(C(=O)Nc4ccc(S(=O)(=O)[O-])c5cc(S(=O)(=O)[O-])cc(S(=O)(=O)[O-])c45)ccc3C)c2)c1.[Na+].[Na+].[Na+].[Na+].[Na+].[Na+] [SURAMIN HEXASODIUM]", 1]
]}

Consider the record given below.
**Query** Please report the recorded MIC for CC1CS(=O)(=O)CCN1/N=C/c1ccc([N+](=O)[O-])o1 (stereo not given) [NIFURTIMOX] .
**Result** 200
